Recorded GI50 by entry
Tested on: HOP-92 NSCLC
Experiment: NCI tumour cell line growth inhibition, 48 h

Check out these entries, answers already filled in.
CCOC(=O)C1=C(C)NC2SC(=O)/C(=C\c3ccccc3Cl)N2C1c1ccccc1 (stereo not drawn) | > 100000 nM
COC1C(O)C(C)OC(OC2C(Oc3cccc4c(O)c5c(=O)oc6ccc(C)c7c(=O)oc(c34)c5c67)OC(C)C3O[C@H](c4ccccc4)OC32)C1O (stereo partly drawn) | 82.3 nM
CCCCN(CCCC)c1ccc(C(=N)c2ccc(N(C)C)cc2)cc1 | 362 nM
C=CCn1c(=O)c2cnc(Nc3ccc(N4CCN(C)CC4)cc3)nc2n1-c1ccc2c(n1)[C@@](O)(CC)CC2 | 494 nM
Cn1cc(C2=C(c3c4n(c5ccccc35)CCCC4)C(=O)NC2=O)c2ccccc21 | 8890 nM

INPUT: With HOP-92 NSCLC as the test system, provide measured GI50 for this compound: `C=C1C(=O)O[C@H]2[C@H]1CC/C(Cn1cc(CNCCc3c[nH]c4ccc(Cl)cc34)nn1)=C\CC[C@@]1(C)O[C@@H]21`
OUTPUT: 1340 nM

INPUT: Give GI50; test system HOP-92 NSCLC; compound `CCN(CC)C(=O)CC1=C(C)/C(=C/c2[nH]c(-c3ccc[nH]3)cc2OC)N=C1C`
OUTPUT: 235 nM
